- Tested on: Meloidogyne incognita J2 juveniles
- test-name: microbe, parasite or virus in culture
- condition-summary: mortality, 24 h exposure
measure-name: LC50
Mention the unit after the number when you answer.

Result for O=C(O)CC/C=C/c1ccccc1 , tested on Meloidogyne incognita J2 juveniles, LC50: 44.4 µg/mL

----------
- test-name: In vitro nematicidal assay, values summarised over the non-target nematodes
- Type: cell-based
- condition-summary: non-target nematodes in 12-well tissue culture plates; 24 h exposure; species for which an LC50 was established; read-out: LC50 values, range over non-target nematodes
measure-name: LC50 at 24 h

The reported value for O=C(O)CC/C=C/c1ccccc1 in terms of LC50 at 24 h is 278 to 421 µg/mL

Provenance of the data: paper PMC8826726
